# Target Under Test: Vg5/Vd2 TCR on SKW3 cells (UniProt A0JD36)
# Sequence (A0JD36 20-115): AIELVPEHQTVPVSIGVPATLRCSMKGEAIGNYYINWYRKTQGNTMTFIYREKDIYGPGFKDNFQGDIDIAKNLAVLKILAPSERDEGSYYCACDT
# Assay Procedure: flow cytometry DRC binding 37 C, SKW3 cells expressing Vg5/Vd2

Binder | Max. Activity (fold over background)
VG9B189 (antibody, human IgG1, lambda, V domains shown) VH: EVQLVQSGGGLVKPGASLKLSCAASGFTFSNHGMSWVRQTSDKRLEWVASITRGGDTTYYPDNVKGRFTISRENAKNTLYLQMSSLKSDDTALYYCTRGPLTVGYAMDYWGQGTTVTVSS VL: QSVVTQPPSASGSPGQSVTISCTGTSSDVGGYNYVSWYQQHPGKAPKLMIYEVSKRPSGVPDRFSGSKSGNTASLTVSGLQAEDEADYYCNSYAGSNNFEVFGGGTKVTVLG | 21.5
